All figures here come from ChEMBL document CHEMBL4257553.

Test system: Acinetobacter baumannii
assayNotes: Antibacterial activity against Acinetobacter baumannii after 24 hrs by microbroth dilution method
Format: functional
Below, each of the compounds is paired with its reported MIC value.
# value in µg/mL; strip the unit string

Worked cases, MIC given:
In [3]: df
Out[3]:
                                   compound            targetofassay  numericresult
0  CCOP(=O)(OCC)C(Nc1ncccn1)c1ccc(Cl)cc1 (stereo not drawn)  Acinetobacter baumannii            128
1  CCOP(=O)(OCC)C(Nc1ncccn1)c1ccc2oc(=O)ccc2c1 (stereo not drawn)  Acinetobacter baumannii             64
2  Cc1ccc(C(Nc2ncccn2)P(=O)(O)O)cc1 (stereo not drawn)  Acinetobacter baumannii            256
3  CCOP(=O)(OCC)C(Nc1ncccn1)c1ccc(F)cc1 (stereo not drawn)  Acinetobacter baumannii            128
4  O=P(O)(O)C(Nc1ncccn1)c1ccc(F)cc1 (stereo not drawn)  Acinetobacter baumannii            256

MIC recorded for this compound, CCOP(=O)(OCC)C(Nc1ncccn1)c1ccc([N+](=O)[O-])cc1 (stereo not drawn) , is 128

Sure, the documented MIC for CCOP(=O)(OCC)C(Nc1ncccn1)c1cn(CC)c2ccccc12 (stereo not drawn) is 64

The recorded MIC for entry CCn1cc(C(=O)O)c(=O)c2cc(F)c(N3CCNCC3)cc21 equals 8

----------
Test system: Staphylococcus aureus
assayNotes: Antibacterial activity against methicillin resistant Staphylococcus aureus after 24 hrs by microbroth dilution method
Assay type: functional
propertyLabel: log10(MIC) (log10 of the value in µg/mL)
For clarity, the numbers are log10 values of MIC expressed in µg/mL.

Consider the reported log10(MIC) for these compounds:
>>> df
                                   compound          targetofassay  numericresult
0  CCOP(=O)(OCC)C(Nc1ncccn1)c1ccc([N+](=O)[O-])cc1 (centres undefined)  Staphylococcus aureus           2.11
1  CCOP(=O)(OCC)C(Nc1ncccn1)c1c[nH]c2ccccc12 (centres undefined)  Staphylococcus aureus           0.60
2  Cc1ccc(C(Nc2ncccn2)P(=O)(O)O)cc1 (centres undefined)  Staphylococcus aureus           2.41

The compound listed as CCOP(=O)(OCC)C(Nc1ncccn1)c1ccc(Cl)cc1Cl (centres undefined) has a reported log10(MIC) of 0.90

Looking up CCOP(=O)(OCC)C(Nc1ncccn1)c1ccc2oc(=O)ccc2c1 (centres undefined) , I see its log10(MIC) listed as 2.41

Form field log10(MIC), entry O=[N+]([O-])c1ccc(C(Nc2ncccn2)P(=O)(O)O)cc1 (centres undefined) : 2.11

----------
The entries below are paired with their reported MIC.
Test system: Pseudomonas aeruginosa
assayNotes: Antibacterial activity against Pseudomonas aeruginosa ATCC 27853 after 24 hrs by microbroth dilution method
Format: functional
assayContext: ATCC 27853, 24 h
Number in µg/mL, nothing else.

Some compounds with recorded MIC:
In [3]: df
Out[3]:
                                   compound  numericresult
0  CCOP(=O)(OCC)C(Nc1ncccn1)c1ccc2c(c1)c1cc(C=O)ccc1n2CC (stereo not drawn)            256
1  CCCCCn1c(CCCC)nc(Cl)c1C(Nc1ncccn1)P(=O)(OCC)OCC (stereo not drawn)             64
2  CCOP(=O)(OCC)C(Nc1ncccn1)c1ccc(OC)cc1 (stereo not drawn)              4
3  CCOP(=O)(OCC)C(Nc1ncccn1)c1ccc(F)cc1 (stereo not drawn)             64
4  CCOP(=O)(OCC)C(Nc1ncccn1)c1ccc2oc(=O)ccc2c1 (stereo not drawn)            512
5  CCCCc1nc(Cl)c(C(Nc2ncccn2)P(=O)(OCC)OCC)n1CC (stereo not drawn)            256
6  CCOP(=O)(OCC)C(Nc1ncccn1)c1c[nH]c2ccccc12 (stereo not drawn)            256

Now for a further compound.
# MIC measured on Pseudomonas aeruginosa for item CCOP(=O)(OCC)C(Nc1ncccn1)c1ccc(Cl)cc1Cl (stereo not drawn) = 8
